# tgt: Bovine papular stomatitis virus chemokine-binding protein (Bovine papular stomatitis virus)
# assay: SPR; BPSV-CBP immobilised on a CM5 chip (~500 RU, amine coupling, 10 mM sodium acetate pH 4.5); serial dilutions of mouse chemokines in HBS-EP pH 7.4 flowed in triplicate, 3 min association, 10 min dissociation, 25°C, Biacore X100; global fit, 1:1 binding model
measurement_kind: Kd (nM)
Express your answer in nM, writing the number without its unit.

Req: Give a short answer stating reported Kd for mouse CCL3 (ligand) APYGADTPTACCFSYSRKIPRQFIVDYFETSSLCSQPGVIFLTKRNRQICADSKETWVQEYITDLELNA .
Resp: 0.13

Req: Please look at this binder and report its Kd: mouse CCL19 (ligand) GANDAEDCCLSVTQRPIPGNIVKAFRYLLNEDGCRVPAVVFTTLRGYQLCAPPDQPWVDRIIRRLKKSSAKNKGNSTRRSPVS
Resp: 0.00146

Req: Find the measured Kd of mouse CXCL4 (ligand) VTSAGPEESDGDLSCVCVKTISSGIHLKHITSLEVIKAGRHCAVPQLIATLKNGRKICLDRQAPLYKKVIKKILES and report it.
Resp: 2.32

Req: In one line, give reported Kd of the entry mouse XCL1 (ligand) VGTEVLEESSCVNLQTQRLPVQKIKTYIIWEGAMRAVIFVTKRGLKICADPEAKWVKAAIKTVDGRASTRKNMAETVPTGAQRSTSTAITLTG .
Resp: 1.36

Req: State its Kd: mouse CXCL1 (ligand) APIANELRCQCLQTMAGIHLKNIQSLKVLPSGPHCTQTEVIATLKNGREACLDPEAPLVQKIVQKMLKGVPK
Resp: 4.33
